Would you mind telling me the reported Fik Kinase %Inhibition of each entry?
# assayed_system: FLK-1 receptor (Mus musculus, UniProt P35918)
# Construct: expressed in transfected cells; host or cells: NIH3T3 C7#3
# Sequence (P35918 20-1345): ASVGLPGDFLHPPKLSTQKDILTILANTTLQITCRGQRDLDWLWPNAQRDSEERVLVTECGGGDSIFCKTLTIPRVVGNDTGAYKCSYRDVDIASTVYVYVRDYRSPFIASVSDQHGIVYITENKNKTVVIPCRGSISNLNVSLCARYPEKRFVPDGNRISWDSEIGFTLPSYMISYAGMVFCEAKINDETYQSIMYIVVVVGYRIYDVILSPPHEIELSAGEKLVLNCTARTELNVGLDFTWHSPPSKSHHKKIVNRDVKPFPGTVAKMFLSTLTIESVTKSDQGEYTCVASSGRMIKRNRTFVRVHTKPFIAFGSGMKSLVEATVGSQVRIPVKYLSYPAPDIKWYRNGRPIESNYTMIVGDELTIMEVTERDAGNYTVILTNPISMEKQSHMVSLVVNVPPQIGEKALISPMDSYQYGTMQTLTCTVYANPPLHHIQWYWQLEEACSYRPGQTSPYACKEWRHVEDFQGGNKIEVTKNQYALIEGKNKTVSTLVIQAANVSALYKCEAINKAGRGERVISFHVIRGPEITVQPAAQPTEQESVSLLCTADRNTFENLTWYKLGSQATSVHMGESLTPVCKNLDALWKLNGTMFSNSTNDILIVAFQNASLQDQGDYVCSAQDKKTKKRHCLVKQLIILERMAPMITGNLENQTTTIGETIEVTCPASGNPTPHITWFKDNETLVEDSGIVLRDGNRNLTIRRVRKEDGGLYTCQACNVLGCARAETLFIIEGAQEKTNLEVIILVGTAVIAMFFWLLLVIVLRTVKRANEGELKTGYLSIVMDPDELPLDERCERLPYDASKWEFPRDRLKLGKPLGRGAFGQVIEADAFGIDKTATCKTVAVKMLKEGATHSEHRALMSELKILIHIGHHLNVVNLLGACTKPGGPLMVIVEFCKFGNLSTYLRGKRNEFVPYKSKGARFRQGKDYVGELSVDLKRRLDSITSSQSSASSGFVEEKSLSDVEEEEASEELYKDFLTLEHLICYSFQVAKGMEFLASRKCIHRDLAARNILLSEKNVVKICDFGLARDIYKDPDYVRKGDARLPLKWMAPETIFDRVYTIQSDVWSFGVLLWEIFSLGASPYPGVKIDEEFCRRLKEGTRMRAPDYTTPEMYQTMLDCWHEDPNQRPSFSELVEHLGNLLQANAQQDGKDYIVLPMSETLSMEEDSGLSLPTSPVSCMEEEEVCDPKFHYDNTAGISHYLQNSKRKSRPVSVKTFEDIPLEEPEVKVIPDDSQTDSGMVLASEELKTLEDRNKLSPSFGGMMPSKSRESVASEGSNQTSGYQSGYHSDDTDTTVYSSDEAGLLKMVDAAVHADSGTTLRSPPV
# test_name: FLK-1 ELISA (kinase activity of the FLK-1 receptor in FLK-1/NIH3T3 cells, VEGF stimulated)
# Type: cell-based
# Method: An enzyme linked immunosorbent assay (ELISA) was conducted to measure the catalytic activity of the FLK-1 receptor and more specifically, the inhibition or activation of indolinone compounds on the catalytic activity of the FLK-1 receptor. Specifically, the following assay was conducted to measure catalytic activity of the FLK-1 receptor in FLK-1/NIH3T3 cells. […]
Please reply with the bare figure in % and do not write the unit itself.

Incoming: Notebook entry, FLK-1 receptor (Mus musculus, UniProt P35918) assay: Fik Kinase %Inhibition of `Cn1cccc1C=C1C(=O)Nc2ccc(CCCl)cc21` = ?
Outgoing: 0.8

Incoming: Then what about the compound `COc1ccc(C=C2C(=O)Nc3ccc(I)cc32)c(OC)c1OC` ?
Outgoing: 5.0

Incoming: Here is the next compound: `O=C1Nc2ccc(S(=O)(=O)Nc3ccc(C(F)(F)F)cc3)cc2C1=Cc1ccc(O)c(Br)c1`
Outgoing: 8.0

Incoming: Follow-up entry: `O=C1Nc2ccc(I)cc2C1=Cc1cc2c(cc1Cl)OCO2`
Outgoing: -3.9

Incoming: # iterate: `Cc1c(Br)ccc2c1C(=Cc1cc(C(C)(C)C)cc(C(C)(C)C)c1O)C(=O)N2`
Outgoing: 9.5

Incoming: Follow-up entry: `CCc1cc(CC)c(C=C2C(=O)Nc3ccc(S(=O)(=O)Nc4ccc(C(F)(F)F)cc4)cc32)[nH]1`
Outgoing: 11.1

Incoming: Check `COc1cc(O)ccc1C=C1C(=O)Nc2ccc(I)cc21` too.
Outgoing: 6.4

Incoming: Request: `Cn1c(C=C2C(=O)Nc3ccc(S(=O)(=O)N4CCOCC4)cc32)nc2ccccc21`
Outgoing: 17.0

Incoming: What would you report for `CNS(=O)(=O)c1ccc2c(c1)C(=Cc1cc(Cl)c(OC)c(C(C)(C)C)c1)C(=O)N2` ?
Outgoing: 15.2

Incoming: Record: `Cc1c(Br)ccc2c1C(=Cc1cc3ccccc3nc1Cl)C(=O)N2`
Outgoing: -2.3

Incoming: How about this compound: `COc1ccc(C=C2C(=O)Nc3ccc(CCCl)cc32)cc1`
Outgoing: 9.1

Incoming: Again, but for `COc1cc(Br)c(O)c(C=C2C(=O)Nc3ccc(S(=O)(=O)Nc4ccc(C(F)(F)F)cc4)cc32)c1`
Outgoing: 10.0

Incoming: What about `CN1C(=O)C(=C2C(=O)Nc3ccc(S(=O)(=O)N4CCOCC4)cc32)c2ccccc21` ?
Outgoing: 11.0

Incoming: `CC(C)(C)c1cc(C=C2C(=O)Nc3ccc(S(=O)(=O)N4CCOCC4)cc32)cc(Br)c1OCc1ccccc1` ?
Outgoing: 12.6

Incoming: Repeat with `CNS(=O)(=O)c1ccc2c(c1)C(=Cc1ccc3c(c1)Cc1ccccc1-3)C(=O)N2`
Outgoing: 10.4

Incoming: Then this compound: `CNS(=O)(=O)c1ccc2c(c1)C(=Cc1ccc([N+](=O)[O-])s1)C(=O)N2`
Outgoing: 23.5

Incoming: `Cc1c(Br)ccc2c1C(=Cc1c(Br)cnn1-c1ccc(Cl)cc1)C(=O)N2` ?
Outgoing: 8.7
